# protocol-conditions: human;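 note: human clinical data: severe hepatitis, meaning potentially life-threatening liver failure or clinically observed cases, the value counts how many indexed literature references report it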
Listed here are compounds together with their documented Hepatotoxicity (severe hepatitis).
Number, no unit, nothing else.

Would you please look over these solved cases?
CC(=O)N(O)CCCCCNC(=O)CCC(=O)N(O)CCCCCNC(=O)CCC(=O)N(O)CCCCCN [DEFEROXAMINE] :: 1
CCc1oc2ccccc2c1C(=O)c1cc(I)c(O)c(I)c1 [BENZIODARONE] :: 0

// Hepatotoxicity (severe hepatitis) lookup, key: NC(=O)OCC(COC(N)=O)c1ccccc1 [FELBAMATE]
3

// Hepatotoxicity (severe hepatitis) lookup, key: CN(C)CCn1nnnc1SCC1=C(C(=O)O)N2C(=O)[C@@H](NC(=O)Cc3csc(N)n3)[C@H]2SC1 [CEFOTIAM]
0

// Hepatotoxicity (severe hepatitis) lookup, key: O=C(O)CCCc1ccc(N(CCCl)CCCl)cc1 [CHLORAMBUCIL]
1
